- subject-of-test: HLA-A*02:06
- procedure-details: IEDB peptide-MHC binding, purified MHC/competitive/radioactivity; bounds were set here for any values at or beyond the usual limits of such assays
- experimental-context: source organism: Vaccinia virus WR
pIC50: −log10 of the molar value.
Lab note: anything with pIC50 at or over 7 counts as yes (1); the rest go in no (0).

- seq-string: "TVGMSIVCIV"
  assigned-category: "no (0)"
- seq-string: "SIVCIVAAV"
  assigned-category: "yes (1)"
- seq-string: "SIKMIYDLNA"
  assigned-category: "no (0)"
- seq-string: "QMAGVEVRYI"
  assigned-category: "yes (1)"
- seq-string: "PTWLGAAITL"
  assigned-category: "no (0)"
- seq-string: "QLFKYVPSA"
  assigned-category: "no (0)"
- seq-string: "LMDSIFVSTM"
  assigned-category: "no (0)"
- seq-string: "FVNFVKDMI"
  assigned-category: "no (0)"
- seq-string: "KVLSIMAFIL"
  assigned-category: "yes (1)"
- seq-string: "GLSSGFYFEI"
  assigned-category: "no (0)"
- seq-string: "PLHIVCSKT"
  assigned-category: "no (0)"
- seq-string: "FTILEYLYIM"
  assigned-category: "yes (1)"
- seq-string: "RVLYDEFVTI"
  assigned-category: "yes (1)"
- seq-string: "LQWDDNIPEL"
  assigned-category: "yes (1)"
- seq-string: "GIIITVGMLI"
  assigned-category: "no (0)"
- seq-string: "WLKDSAIMVA"
  assigned-category: "no (0)"
- seq-string: "AVTLNRIKIA"
  assigned-category: "no (0)"
- seq-string: "YVIRHVDGKI"
  assigned-category: "no (0)"
- seq-string: "NITTLLNETA"
  assigned-category: "no (0)"
- seq-string: "TLVKSGLTEV"
  assigned-category: "yes (1)"
- seq-string: "IIPFIAYFVL"
  assigned-category: "no (0)"
- seq-string: "KLYGYASLT"
  assigned-category: "no (0)"
- seq-string: "TIILNKIVQL"
  assigned-category: "yes (1)"
- seq-string: "LALTDVEKRI"
  assigned-category: "no (0)"
- seq-string: "NTVGMSIVCI"
  assigned-category: "no (0)"
- seq-string: "MMQNDYGGM"
  assigned-category: "no (0)"
- seq-string: "TIAHINTLI"
  assigned-category: "no (0)"
- seq-string: "GIAIFNNRNL"
  assigned-category: "no (0)"
- seq-string: "MQKFTILEYL"
  assigned-category: "no (0)"
- seq-string: "IMETIDPVYI"
  assigned-category: "no (0)"
- seq-string: "GLCNYGGIL"
  assigned-category: "no (0)"
- seq-string: "GLYIPGTSVI"
  assigned-category: "no (0)"
- seq-string: "WVMDTLNGI"
  assigned-category: "yes (1)"
- seq-string: "LVQYRILPMI"
  assigned-category: "no (0)"
- seq-string: "TILATLNTLI"
  assigned-category: "no (0)"
- seq-string: "NITTLLNET"
  assigned-category: "no (0)"
- seq-string: "DMLLNVQTLI"
  assigned-category: "no (0)"
- seq-string: "SASDMQKFTI"
  assigned-category: "no (0)"
